Tested on: Saccharomyces cerevisiae
Assay: protein stability index of tFT-peptide fusion (C-terminal peptide) (PSI (0-1 scale)); higher = more stable (slower turnover);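 further: PSI is a weighted mean of sequencing reads over stability bins, variants kept only with over 10 reads, mCherry proximal and sfGFP distal, peptide attached via GGGS linker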
Conditions: genetic background: wild type; temperature: 30 C
I'd be grateful if you could share measured protein stability index for these entries.
Answers are plain numbers.

// solved cases for protein stability index follow
LVALCGYTLRLR = 0.487
IGCCSGYGGERG = 0.691
VGAGVAGGASVS = 0.613
DRSLRLGSLTSG = 0.6

For every listed record, write down its protein stability index.
1. KKKKKQKEKKQK
2. LRVRLSVLLPLD
3. TSTRTPTHRGPL
4. GLLRGHVFVGRG
5. RGGRGGPGWVAG
6. DCRLPSLPPCVA

A.
0.72
0.578
0.762
0.692
0.681
0.648

###

Exercise: for every item that follows, state its recorded protein stability index.
Test system: Saccharomyces cerevisiae
Experiment: protein stability index of tFT-peptide fusion (C-terminal peptide) (PSI (0-1 scale)); higher = more stable (slower turnover)
Conditions: genetic background: wild type; temperature: 37 C
Answers are plain numbers.

Here is how some sequences turned out for protein stability index.
LWGLVWGGVWGV = 0.705
GFSVFSHSVWVR = 0.238
IVVSSRFLGFFC = 0.18

Dear colleague, could you please provide protein stability index for the sequences listed below?
1. MMYTLSMLLRLR
2. FVLWLIYVDLFF

A.
1: 0.546; 2: 0.339

###

Test system: Saccharomyces cerevisiae
Assay: protein stability index of tFT-peptide fusion (C-terminal peptide) (PSI (0-1 scale)); higher = more stable (slower turnover)
Conditions: genetic background: wild type; temperature: 30 C
Use 0.7 as the dividing line for protein stability index, with the line itself on the 1 (yes) side and lower values as 0 (no).

Check out these entries, answers already filled in.
GVSCIAEGRGGV = 0 (no)
ALIFPLPASSTF = 0 (no)
PSPLPRPPPLPL = 0 (no)
PPSAPPPSYHPP = 0 (no)
KMCISLGTVLAV = 0 (no)
GAVVLSRFRCLP = 0 (no)
LPSASPPSPPPP = 0 (no)
SPPRPSSPRASP = 0 (no)
ECSGGGCGQRVG = 1 (yes)
EQVRVDETTGRR = 1 (yes)

Q. Confirm if protein stability index reported for the sequence GRGGWVHRRIGA is 0.7 or above.
A. 0 (no)

Q. API: above_or_equal(metric=protein stability index, cutoff=0.7) for item TWKARFFMDLGN
A. 0 (no)

###

Test system: Saccharomyces cerevisiae
Experiment: protein stability index of tFT-peptide fusion (C-terminal peptide) (PSI (0-1 scale)); higher = more stable (slower turnover)
Conditions: genetic background: wild type; temperature: 30 C
I would appreciate it if you labelled entries 1 when protein stability index is 0.7 or higher, otherwise -1.

Consider the following illustrative entries.
FYPLPSYFAYPI = -1
VVGNGGWVEGEV = -1
PSPPPPTPPVRL = 1
ARGGIGTCSWGG = 1
QRMKHQKVTSNP = 1

Q. Please indicate if the recorded protein stability index for SPCARPPPFPAR meets or exceeds 0.7.
A. 1

Q. Please indicate if the recorded protein stability index for SGVAYAVYLVFR meets or exceeds 0.7.
A. -1

Q. Hello, I need to know if FSVHVPPFPPVP has measured protein stability index not below 0.7. Thanks!
A. -1

Q. Check if protein stability index >= 0.7 (inclusive). Item: KEQKKKLKKKHG
A. -1

Q. Would you say SVSPRAPPILPP shows protein stability index at minimum 0.7?
A. 1

Q. Answer whether protein stability index of VLTGQQSVFGAK is greater than or equal to 0.7.
A. 1

Q. Can LLMHPCTVELIS be said to have protein stability index at or above 0.7?
A. -1

Q. Check the entry LENIHVLETIFT : does protein stability index equal or exceed 0.7?
A. -1

Q. Tell me whether protein stability index is at least 0.7 here: EVTAQLCADKEP
A. -1

Q. In plain terms: is recorded protein stability index at least 0.7 for LPQPQPPVPPPL ?
A. 1

Source: the supplement of paper PMC10724198
